Taken from patent US20240417469A1.

assay_target: human CD3 on cells (human PBMC; Jurkat TCR/CD3 NFAT reporter cells) (human, UniProt P07766 23-207; P04234 22-171; P09693 23-182)
Sequence (P07766 23-207, chain 1 of 3): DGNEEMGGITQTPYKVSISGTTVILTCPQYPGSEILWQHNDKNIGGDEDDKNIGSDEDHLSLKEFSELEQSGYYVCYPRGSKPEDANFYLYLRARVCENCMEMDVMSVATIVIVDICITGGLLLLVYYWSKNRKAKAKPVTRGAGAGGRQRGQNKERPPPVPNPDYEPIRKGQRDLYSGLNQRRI
Sequence (P04234 22-171, chain 2 of 3): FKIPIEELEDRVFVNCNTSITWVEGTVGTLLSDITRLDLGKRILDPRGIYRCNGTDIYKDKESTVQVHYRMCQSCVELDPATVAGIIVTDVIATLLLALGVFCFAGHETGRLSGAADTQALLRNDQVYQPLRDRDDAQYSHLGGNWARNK
Sequence (P09693 23-182, chain 3 of 3): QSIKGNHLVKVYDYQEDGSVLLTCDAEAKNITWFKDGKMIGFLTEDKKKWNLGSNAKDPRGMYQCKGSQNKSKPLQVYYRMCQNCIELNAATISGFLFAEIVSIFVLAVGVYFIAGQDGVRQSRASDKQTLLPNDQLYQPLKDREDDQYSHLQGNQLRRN
test_name: cell-based or functional assay
Give % of SP34 for every item shown.
Put down the number, then write its unit next to it.

Measured % of SP34 of Hu153A6B1-6 (antibody, V domains shown, humanized mAb) VH: EVQLQESGPGLVKPSETLSLTCTVSGFSLTSYNIHWVRQPPGKGLEWMGRIRYNGDTSYNSALKSRLTISRDTSKNQVSLKLSSVTAADTAVYYCTRGPYGGSREPLFDYWGQGTMVTVSS VL: DIQMTQSPSSLSASVGDRVTITCKTSQNINKYLNWYQQKPGKAPKLLIYTTNNLQTGVPSRFSGSGSGTDFTLTISSLQPEDFATYYCLQHGSGYTFGQGTKLEIK : 71.9%

Item: Hu155A9B1-2 (antibody, V domains shown, humanized mAb) VH: EVQLQESGPGLVKPSETLSLTCTVSGGSISSYNVHWVRQPPGKGLEWIGRVRYNGDTSYNSALKSRVTISRDTSKNQFSLKLSSVTAADTAVYYCARGPYGGSSEPLFDYWGQGTMVTVSS VL: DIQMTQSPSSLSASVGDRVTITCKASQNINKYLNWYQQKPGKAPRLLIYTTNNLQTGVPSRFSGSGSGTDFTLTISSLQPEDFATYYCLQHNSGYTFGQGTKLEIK | % of SP34: 12.9%

Consider Hu153A6B1-18 (antibody, V domains shown, humanized mAb) VH: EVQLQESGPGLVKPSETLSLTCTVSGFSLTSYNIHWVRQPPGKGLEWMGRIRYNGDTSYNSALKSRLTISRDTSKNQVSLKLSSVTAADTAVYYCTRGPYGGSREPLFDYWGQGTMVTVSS VL: DIQMTQSPSSLSASVGDRVTITCKTSQNINKYLNWFQQKPGKAPKLLIYTTNNLQTGIPSRFSGSGSGTDFTLTISSLQPEDFATYFCLQHGSGYTFGQGTKLEIK . Its measured % of SP34 is 88.8%
